target-or-system: IRAK4 (Homo sapiens, UniProt Q9NWZ3)
Sequence (Q9NWZ3 whole entry): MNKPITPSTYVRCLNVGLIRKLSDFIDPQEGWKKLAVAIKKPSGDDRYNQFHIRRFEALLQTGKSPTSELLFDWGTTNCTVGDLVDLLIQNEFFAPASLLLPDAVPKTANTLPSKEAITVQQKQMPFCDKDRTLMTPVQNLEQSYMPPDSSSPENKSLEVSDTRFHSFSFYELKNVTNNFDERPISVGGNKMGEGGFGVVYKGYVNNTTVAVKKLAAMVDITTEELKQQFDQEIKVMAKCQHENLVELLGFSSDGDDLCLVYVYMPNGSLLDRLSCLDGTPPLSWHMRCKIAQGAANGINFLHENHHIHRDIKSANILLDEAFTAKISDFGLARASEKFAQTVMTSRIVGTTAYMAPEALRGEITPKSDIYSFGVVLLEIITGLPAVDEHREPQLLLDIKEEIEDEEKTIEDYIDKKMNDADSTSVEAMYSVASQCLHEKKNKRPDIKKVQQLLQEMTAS
experiment-description: OCI-LY-10 degradation assay (western blot, % IRAK4 degraded after 4 hours)
Assay type: cell-based
Design: endogenous in cells; host or cells: OCI-LY10
measurement-parameters: OCI-LY10 cells, 4 hours, 0.01 uM compound
endpoint: OCI-LY10 % IRAK4 Degradation (0.01 uM)

Example results:
>>> result("O=C1CCC(N2C(=O)c3ccc(NCc4cn(CCOCCOCCNCc5ccc(-n6cc(NC(=O)c7coc(-c8ccnc(NCC9CC9)c8)n7)c(C(F)F)n6)cc5)nn4)cc3C2=O)C(=O)N1 (stereo not shown)")
"C (<20% degradation)"
>>> result("NC(=O)c1nn(CC#CC#CCOCCOCCNc2cccc3c2C(=O)N(C2CCC(=O)NC2=O)C3=O)cc1NC(=O)c1coc(-c2ccnc(NCC3CC3)c2)n1 (stereo not shown)")
"C (<20% degradation)"
>>> result("NC(=O)c1nn(-c2ccc(CNCCCc3cccc4c3C(=O)N(C3CCC(=O)NC3=O)C4=O)cc2)cc1NC(=O)c1coc(-c2ccncc2)n1 (stereo not shown)")
"C (<20% degradation)"
>>> result("CN(CCNCCCc1ccc2c(c1)C(=O)N(C1CCC(=O)NC1=O)C2=O)C(=O)c1ccc(-n2cc(NC(=O)c3coc(-c4ccncc4)n3)c(C(F)F)n2)cc1 (stereo not shown)")
"C (<20% degradation)"
>>> result("O=C1CCC(N2C(=O)c3cccc(CCCOCCNC(=O)c4ccc(-n5cc(NC(=O)c6coc(-c7ccnc(NCC8CC8)c7)n6)c(C(F)F)n5)cc4)c3C2=O)C(=O)N1 (stereo not shown)")
"C (<20% degradation)"

Q) Requested field: OCI-LY10 % IRAK4 Degradation (0.01 uM). Item: O=C1CCC(N2C(=O)c3cccc(CCCN4CCC(n5cc(NC(=O)c6coc(-c7ccnc(NCC8CC8)c7)n6)c(C(F)F)n5)CC4)c3C2=O)C(=O)N1 (stereo not shown)
A) C (<20% degradation)

Q) Requested field: OCI-LY10 % IRAK4 Degradation (0.01 uM). Item: O=C1CCC(N2C(=O)c3ccc(NCCOCCN4CCN(CCOCCNCc5ccc(-n6cc(NC(=O)c7coc(-c8ccnc(NCC9CC9)c8)n7)c(C(F)F)n6)cc5)CC4)cc3C2=O)C(=O)N1 (stereo not shown)
A) C (<20% degradation)

Q) Requested field: OCI-LY10 % IRAK4 Degradation (0.01 uM). Item: O=C1CCC(N2C(=O)c3cccc(NC4CCN(CCOCCOCCOCCNCc5ccc(-n6cc(NC(=O)c7coc(-c8ccnc(NCC9CC9)c8)n7)c(C(F)F)n6)cc5)CC4)c3C2=O)C(=O)N1 (stereo not shown)
A) C (<20% degradation)

Q) Requested field: OCI-LY10 % IRAK4 Degradation (0.01 uM). Item: O=C1CCC(N2C(=O)c3cccc(NCCNCCOCCNCc4ccc(-n5cc(NC(=O)c6coc(-c7ccnc(NCC8CC8)c7)n6)c(C(F)(F)F)n5)cc4)c3C2=O)C(=O)N1 (stereo not shown)
A) C (<20% degradation)

Q) Requested field: OCI-LY10 % IRAK4 Degradation (0.01 uM). Item: CN(CCCCCCCCCc1cccc2c1C(=O)N(C1CCC(=O)NC1=O)C2=O)Cc1ccc(-n2cc(NC(=O)c3coc(-c4ccnc(NCC5CC5)c4)n3)c(C(N)=O)n2)cc1 (stereo not shown)
A) B (>20-50% degradation)

Q) Requested field: OCI-LY10 % IRAK4 Degradation (0.01 uM). Item: NC(=O)c1nn(CCOCCOCCOCCNc2cccc3c2C(=O)N(C2CCC(=O)NC2=O)C3=O)cc1NC(=O)c1coc(-c2ccnc(NCC3CC3)c2)n1 (stereo not shown)
A) C (<20% degradation)

Q) Requested field: OCI-LY10 % IRAK4 Degradation (0.01 uM). Item: O=C1CCC(N2C(=O)c3cccc(CNCc4ccc(-n5cc(NC(=O)c6coc(-c7ccncc7)n6)c(C(F)F)n5)cc4)c3C2=O)C(=O)N1 (stereo not shown)
A) C (<20% degradation)

Q) Requested field: OCI-LY10 % IRAK4 Degradation (0.01 uM). Item: O=C1CCC(N2C(=O)c3cccc(NCCOCCN4CCO[C@H](CNC(=O)c5ccc(-n6cc(NC(=O)c7coc(-c8ccnc(NCC(F)(F)F)c8)n7)c(C(F)F)n6)cc5)C4)c3C2=O)C(=O)N1 (stereo partly shown)
A) C (<20% degradation)

Q) Requested field: OCI-LY10 % IRAK4 Degradation (0.01 uM). Item: O=C1CCC(N2C(=O)c3ccc(CCCNCc4ccc(-n5cc(NC(=O)c6coc(-c7ccnc(NCC8CC8)c7)n6)c(C(F)F)n5)cc4)cc3C2=O)C(=O)N1 (stereo not shown)
A) C (<20% degradation)

Q) Requested field: OCI-LY10 % IRAK4 Degradation (0.01 uM). Item: NC(=O)c1nn(-c2ccc(C(=O)NCCOCCOCCOCCOCC#Cc3cccc4c3C(=O)N(C3CCC(=O)NC3=O)C4=O)cc2)cc1NC(=O)c1coc(-c2ccnc(NCC(F)(F)F)c2)n1 (stereo not shown)
A) C (<20% degradation)

Q) Requested field: OCI-LY10 % IRAK4 Degradation (0.01 uM). Item: O=C1CCC(N2C(=O)c3cccc(CCCNCc4ccc(-n5cc(NC(=O)c6coc(-c7ccnc(NCC8CC8)c7)n6)c(C(F)F)n5)cc4)c3C2=O)C(=O)N1 (stereo not shown)
A) C (<20% degradation)

Q) Requested field: OCI-LY10 % IRAK4 Degradation (0.01 uM). Item: O=C1CCC(N2C(=O)c3cccc(CCCOCCOCCNC(=O)c4ccc(-n5cc(NC(=O)c6coc(-c7ccnc(NCC8CC8)c7)n6)c(C(F)F)n5)cc4)c3C2=O)C(=O)N1 (stereo not shown)
A) C (<20% degradation)

The reported measurements were obtained from patent US10874743B2.
